Each entry below carries its reported IC50.
# SYSTEM UNDER TEST: human MDM2 protein (amino acids 2-188) (Homo sapiens, UniProt Q00987)
# Construct: human MDM2 protein (amino acids 2-188); made in house
# Sequence (Q00987 2-188): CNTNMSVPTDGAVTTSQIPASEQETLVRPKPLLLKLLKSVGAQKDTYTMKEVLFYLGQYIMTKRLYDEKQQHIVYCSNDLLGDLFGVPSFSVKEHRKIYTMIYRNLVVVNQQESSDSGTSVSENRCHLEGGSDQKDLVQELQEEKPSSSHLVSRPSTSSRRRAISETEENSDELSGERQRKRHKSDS
# MEASUREMENT NOTES: p53-MDM2 TR-FRET assay, modified (p53-MDM2 Assay 2)
# Type: binding
# ASSAY SETUP: 0.1 nM MDM2, 0.1 nM Europium labeled streptavidin; read-out: IC50 (nM) of p53-Hdm2 inhibition (TR-FRET) Assay 2
EXPERIMENTAL READOUT: IC50 (nM)

{"COMPOUND": "COc1cc2c(cc1OC(C)C)[C@H](c1ccc(Cl)cc1)N(c1ccc([C@@](C)(O)C3CCN(C)CC3)cc1)C(=O)C2 (single isomer, unassigned)", "OBS VALUE": 1.06}
{"COMPOUND": "COc1cc2c(cc1OC(C)C)[C@H](c1ccc(Cl)cc1)N(c1ccc(C(C)(O)C3CC4CCC(C3)N4C3COC3)cc1)C(=O)C2 (stereo partly drawn)", "OBS VALUE": 5.11}
{"COMPOUND": "COc1cc2c(cc1OC(C)C)[C@H](c1ccc(Cl)cc1)N(c1ccc(C(C)(O)C3C4COCC3CN(C=O)C4)cc1)C(=O)C2 (stereo partly drawn)", "OBS VALUE": 4.89}
{"COMPOUND": "[2H]C([2H])([2H])Oc1cc2c(cc1OC(C)C)[C@H](c1ccc(Cl)cc1)N(c1ccc([C@](C)(O)C3CCN(C=O)CC3)cc1)C(=O)C2 (single isomer, unassigned)", "OBS VALUE": 78.7}
{"COMPOUND": "COc1cc2c(cc1OC(C)C)[C@H](c1ccc(Cl)cc1)N(c1ccc(C(C)(O)C3CCN(C(=O)F)CC3)cc1)C(=O)C2 (mixture of isomers)", "OBS VALUE": 1.38}
{"COMPOUND": "COc1cc2c(cc1OC(C)C)[C@H](c1ccc(Cl)cc1)N(c1ccc([C@](C)(O)C34CCC(CC3)C4)cc1)C(=O)C2 (single isomer, unassigned)", "OBS VALUE": 305}
